Listed compounds paired with reported inhibition
target: Dual specificity protein kinase CLK3 (Homo sapiens) (UniProt P49761); assay: Competitive binding affinity to CLK3 (unknown origin) at 10 uM in presence of ATP relative to control
Sequence (P49761 whole entry, looked up): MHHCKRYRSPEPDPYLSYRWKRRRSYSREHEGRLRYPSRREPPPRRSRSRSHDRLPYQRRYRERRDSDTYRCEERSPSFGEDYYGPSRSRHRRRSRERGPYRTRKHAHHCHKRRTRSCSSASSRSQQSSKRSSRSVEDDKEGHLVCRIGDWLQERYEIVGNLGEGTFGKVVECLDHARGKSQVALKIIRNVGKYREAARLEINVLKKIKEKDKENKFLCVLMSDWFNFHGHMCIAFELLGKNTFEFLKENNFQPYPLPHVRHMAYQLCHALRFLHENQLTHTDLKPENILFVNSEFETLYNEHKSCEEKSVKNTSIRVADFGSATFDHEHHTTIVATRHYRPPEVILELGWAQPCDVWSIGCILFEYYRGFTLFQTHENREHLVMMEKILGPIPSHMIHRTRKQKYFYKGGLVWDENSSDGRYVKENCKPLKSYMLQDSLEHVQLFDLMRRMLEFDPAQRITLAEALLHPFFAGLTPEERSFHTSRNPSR
property name: inhibition

INSERT INTO assay_data (substance_smiles, study_system, recorded_measurement) VALUES
  ('O[C@H]1CC[C@H](Nc2nccc(-n3ccc4ccccc43)n2)CC1', 'Dual specificity protein kinase CLK3 (Homo sapiens) (UniProt P49761)', '< 50%'),
  ('O=C([C@H]1CC[C@H](Nc2nccc(-n3nnc4ccccc43)n2)CC1)N1CCOCC1', 'Dual specificity protein kinase CLK3 (Homo sapiens) (UniProt P49761)', '< 50%'),
  ('O[C@H]1CC[C@H](Nc2nccc(-n3ncc4ccccc43)n2)CC1', 'Dual specificity protein kinase CLK3 (Homo sapiens) (UniProt P49761)', '< 50%');

----------
Listed compounds paired with reported inhibition
molecular target: Serine/threonine-protein kinase Nek6 (Homo sapiens); test: Competitive binding affinity to NEK6 (unknown origin) at 10 uM in presence of ATP relative to control
property name: inhibition

INSERT INTO results (substance_smiles, property_name, recorded_measurement) VALUES
  ('N[C@H]1CC[C@H](Nc2nccc(-n3nnc4ccccc43)n2)CC1', 'inhibition', '< 50%'),
  ('O[C@H]1CC[C@H](Nc2nccc(-n3ncc4ccccc43)n2)CC1', 'inhibition', '< 50%'),
  ('O[C@H]1CC[C@H](Nc2nccc(-n3ccc4ccccc43)n2)CC1', 'inhibition', '< 50%');

----------
molecular target: Serine/threonine-protein kinase 16 (Homo sapiens, UniProt O75716); assay: Competitive binding affinity to STK16 (unknown origin) at 10 uM in presence of ATP relative to control
Sequence (O75716 whole entry): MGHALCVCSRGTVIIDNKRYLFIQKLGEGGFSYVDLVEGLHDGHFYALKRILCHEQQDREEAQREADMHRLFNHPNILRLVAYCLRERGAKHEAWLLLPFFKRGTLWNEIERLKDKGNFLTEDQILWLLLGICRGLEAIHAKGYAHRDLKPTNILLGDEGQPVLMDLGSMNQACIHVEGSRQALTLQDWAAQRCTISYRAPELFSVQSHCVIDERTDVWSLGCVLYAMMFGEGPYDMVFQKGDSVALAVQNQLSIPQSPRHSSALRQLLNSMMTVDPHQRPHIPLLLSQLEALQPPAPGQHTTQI
Listed molecules paired with reported inhibition
property name: inhibition

INSERT INTO results (substance_smiles, property_name, recorded_measurement) VALUES
  ('O[C@H]1CC[C@H](Nc2nccc(-n3nnc4ccccc43)n2)CC1', 'inhibition', '< 50%'),
  ('CS(=O)(=O)CCCOc1cccc2c1ccn2-c1ccnc(N[C@H]2CC[C@H](C(=O)N3CCC(O)CC3)CC2)n1', 'inhibition', '> 85%'),
  ('O[C@H]1CC[C@H](Nc2nccc(-n3ccc4ccccc43)n2)CC1', 'inhibition', '< 50%');

----------
target: cAMP-dependent protein kinase catalytic subunit alpha (Homo sapiens) (UniProt P17612); assay: Competitive binding affinity to PKAC-alpha (unknown origin) at 10 uM in presence of ATP relative to control
Listed compounds paired with reported inhibition
property name: inhibition

INSERT INTO assay_data (substance_smiles, property_name, recorded_measurement) VALUES
  ('O[C@H]1CC[C@H](Nc2nccc(-n3ncc4ccccc43)n2)CC1', 'inhibition', '< 50%'),
  ('N[C@H]1CC[C@H](Nc2nccc(-n3nnc4ccccc43)n2)CC1', 'inhibition', '< 50%'),
  ('O=C([C@H]1CC[C@H](Nc2nccc(-n3nnc4ccccc43)n2)CC1)N1CCOCC1', 'inhibition', '< 50%');

----------
biological target: UniProtKB P06241; assay: Competitive binding affinity to FYN (unknown origin) at 10 uM in presence of ATP relative to control
Sequence (P06241 2-537 limits assumed): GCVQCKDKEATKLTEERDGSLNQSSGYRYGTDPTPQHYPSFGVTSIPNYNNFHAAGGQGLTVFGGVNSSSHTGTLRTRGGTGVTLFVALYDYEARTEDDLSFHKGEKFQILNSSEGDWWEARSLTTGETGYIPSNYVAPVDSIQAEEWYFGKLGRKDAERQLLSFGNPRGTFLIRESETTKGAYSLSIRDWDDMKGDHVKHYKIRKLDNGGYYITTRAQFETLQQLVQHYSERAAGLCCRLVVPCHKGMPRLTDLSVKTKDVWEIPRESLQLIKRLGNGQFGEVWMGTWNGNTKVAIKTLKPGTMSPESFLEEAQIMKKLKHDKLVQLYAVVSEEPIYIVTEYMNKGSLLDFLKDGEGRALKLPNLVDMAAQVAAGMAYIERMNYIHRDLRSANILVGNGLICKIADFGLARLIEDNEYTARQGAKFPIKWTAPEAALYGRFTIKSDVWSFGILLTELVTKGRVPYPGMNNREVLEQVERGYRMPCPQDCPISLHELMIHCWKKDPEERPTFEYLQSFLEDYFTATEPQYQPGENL
Listed molecules paired with reported inhibition
property name: inhibition

INSERT INTO results (substance_smiles, study_system, recorded_measurement) VALUES
  ('O[C@H]1CC[C@H](Nc2nccc(-n3nnc4ccccc43)n2)CC1', 'UniProtKB P06241', '< 50%'),
  ('O[C@H]1CC[C@H](Nc2nccc(-n3ncc4ccccc43)n2)CC1', 'UniProtKB P06241', '< 50%'),
  ('O[C@H]1CC[C@H](Nc2nccc(-n3ccc4ccccc43)n2)CC1', 'UniProtKB P06241', '< 50%');

----------
target: Death-associated protein kinase 2 (Homo sapiens, UniProt Q9UIK4); test: Competitive binding affinity to DAPK2 (unknown origin) at 10 uM in presence of ATP relative to control
Sequence (Q9UIK4 whole entry, looked up): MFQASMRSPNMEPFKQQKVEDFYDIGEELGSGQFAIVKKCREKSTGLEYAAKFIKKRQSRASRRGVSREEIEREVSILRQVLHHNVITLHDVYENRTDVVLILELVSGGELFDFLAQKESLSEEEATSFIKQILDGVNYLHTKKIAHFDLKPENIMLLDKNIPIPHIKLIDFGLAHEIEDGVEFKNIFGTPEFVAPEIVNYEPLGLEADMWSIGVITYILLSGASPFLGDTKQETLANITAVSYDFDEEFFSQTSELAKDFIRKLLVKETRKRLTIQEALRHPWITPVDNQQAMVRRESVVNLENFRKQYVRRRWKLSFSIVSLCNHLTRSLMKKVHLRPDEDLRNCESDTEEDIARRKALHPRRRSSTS
property name: inhibition

INSERT INTO assay_data (substance_smiles, property_name, recorded_measurement) VALUES
  ('O[C@H]1CC[C@H](Nc2nccc(-n3ccc4ccccc43)n2)CC1', 'inhibition', '< 50%'),
  ('CS(=O)(=O)CCCOc1cccc2c1ccn2-c1ccnc(N[C@H]2CC[C@H](C(=O)N3CCC(O)CC3)CC2)n1', 'inhibition', '> 85%'),
  ('O[C@H]1CC[C@H](Nc2nccc(-n3ncc4ccccc43)n2)CC1', 'inhibition', '< 50%'),
  ('O=C([C@H]1CC[C@H](Nc2nccc(-n3nnc4ccccc43)n2)CC1)N1CCOCC1', 'inhibition', '< 50%');

----------
biological target: Mitogen-activated protein kinase 8 (Homo sapiens, UniProt P45983)
Sequence (P45983 whole entry): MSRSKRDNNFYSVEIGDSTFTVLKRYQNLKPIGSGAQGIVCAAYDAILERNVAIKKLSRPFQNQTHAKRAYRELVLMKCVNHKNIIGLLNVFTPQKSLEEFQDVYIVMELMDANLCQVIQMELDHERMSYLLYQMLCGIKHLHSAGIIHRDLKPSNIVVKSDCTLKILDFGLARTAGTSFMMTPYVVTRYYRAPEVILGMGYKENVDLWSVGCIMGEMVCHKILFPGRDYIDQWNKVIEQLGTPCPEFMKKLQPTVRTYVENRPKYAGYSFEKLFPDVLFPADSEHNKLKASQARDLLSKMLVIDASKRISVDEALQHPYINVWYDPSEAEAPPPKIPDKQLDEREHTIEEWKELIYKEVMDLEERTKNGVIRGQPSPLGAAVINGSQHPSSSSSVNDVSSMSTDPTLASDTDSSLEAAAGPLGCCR
pIC50: −log10 of the molar value.
Label scheme for pIC50: lower than 7 is no (0), 7 and above is yes (1).

INSERT INTO measurements (compound, label_class) VALUES
  ('CS(=O)(=O)CCCOc1cccc2c1ccn2-c1ccnc(N[C@H]2CC[C@H](C(=O)N3CCC(O)CC3)CC2)n1', 'yes (1)'),
  ('O[C@H]1CC[C@H](Nc2nccc(N3CCc4ccccc43)n2)CC1', 'no (0)'),
  ('OCC(O)COc1cccc2c1cnn2-c1ccnc(N[C@H]2CC[C@H](O)CC2)n1 (some centres not stated)', 'yes (1)'),
  ('CN(C)S(=O)(=O)N[C@H]1CC[C@H](Nc2nccc(-n3nnc4ccccc43)n2)CC1', 'yes (1)'),
  ('CC(C)(O)[C@H]1CC[C@H](Nc2nccc(-n3ccc4c(OCCCS(C)(=O)=O)cccc43)n2)CC1', 'yes (1)'),
  ('CS(=O)(=O)CCCOc1cccc2c1ccn2-c1ccnc(N[C@H]2CC[C@H](C(=O)N3CC[C@@H](F)C3)CC2)n1', 'yes (1)'),
  ('CCN(CC)C(=O)[C@H]1CC[C@H](Nc2nccc(-n3ccc4c(OCCCS(C)(=O)=O)cccc43)n2)CC1', 'yes (1)'),
  ('COC1CCN(C(=O)[C@H]2CC[C@H](Nc3nccc(-n4ccc5c(OCCCS(C)(=O)=O)cccc54)n3)CC2)CC1', 'yes (1)'),
  ('O[C@H]1CC[C@H](Nc2nccc(-c3n[nH]c4ccccc34)n2)CC1', 'no (0)'),
  ('CS(=O)(=O)CCOc1cccc2c1cnn2-c1ccnc(N[C@H]2CC[C@H](O)CC2)n1', 'yes (1)');
